Source of measurements: patent US20240066131A1

# FPN IC50 values compiled below
- TARGET: T1, human ferroportin (SLC40A1) fused in frame with GFP, stably expressed in HEK293 cells (human, UniProt Q9NP59 1-571)
- T1 sequence (looked up): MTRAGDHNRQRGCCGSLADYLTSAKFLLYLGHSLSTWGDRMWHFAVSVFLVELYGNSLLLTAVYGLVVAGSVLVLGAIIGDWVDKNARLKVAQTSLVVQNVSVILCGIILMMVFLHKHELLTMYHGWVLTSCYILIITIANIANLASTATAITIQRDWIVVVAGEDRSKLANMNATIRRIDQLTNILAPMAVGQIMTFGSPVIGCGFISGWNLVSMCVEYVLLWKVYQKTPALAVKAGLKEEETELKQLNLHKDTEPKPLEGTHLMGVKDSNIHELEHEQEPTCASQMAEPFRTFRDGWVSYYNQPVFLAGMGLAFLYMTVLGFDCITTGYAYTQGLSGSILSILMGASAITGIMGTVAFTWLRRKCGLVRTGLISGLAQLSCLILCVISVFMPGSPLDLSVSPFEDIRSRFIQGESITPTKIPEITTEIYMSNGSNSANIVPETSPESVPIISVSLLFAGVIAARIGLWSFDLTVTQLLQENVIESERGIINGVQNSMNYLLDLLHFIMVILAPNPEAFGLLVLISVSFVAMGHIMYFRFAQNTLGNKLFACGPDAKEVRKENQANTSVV
- ASSAY_NOTES: cell-based or functional assay
Starred links: 1 amine or outer side, 2 acyl side, 3 side chain; linkers in the order of their positions; H or OH if unused. Non-standard residues stand in square brackets, D forms with d. Groups on a side chain read outwards from the residue. No end group written: not given here. *: point of attachment. N_Butyl_Phe = CCCCN([C@@H](Cc1ccccc1)C(=O)[*:2])[*:1]; Dip = N[C@H](C(=O)O)C(c1ccccc1)c1ccccc1; γGlu = O=C(O)[C@H](CCC(=O)[*:2])N[*:1]; Palmitoyl = CCCCCCCCCCCCCCCC(=O)*; β3hF = N[C@H](CC(=O)O)Cc1ccccc1; Isovaleryl = CC(C)CC(=O)*; Ahx = NCCCCCC(=O)O; βAla = NCCC(=O)O

>  <BINDER>
Isovaleryl-LTH[Dip]PLIK([Ahx-Palmitoyl])[β3hF]-NH2 (SMILES CCCCCCCCCCCCCCCC(=O)NCCCCCC(=O)NCCCC[C@H](NC(=O)[C@@H](NC(=O)[C@H](CC(C)C)NC(=O)[C@@H]1CCCN1C(=O)[C@@H](NC(=O)[C@H](Cc1c[nH]cn1)NC(=O)[C@@H](NC(=O)[C@H](CC(C)C)NC(=O)CC(C)C)[C@@H](C)O)C(c1ccccc1)c1ccccc1)[C@@H](C)CC)C(=O)N[C@H](CC(N)=O)Cc1ccccc1) [Isovaleric Acid-L-T-H-[Dpa]-P-L-I-[Lys(Ahx_Palm)]-[bhPhe]-NH2]

>  <FPN IC50>
1270 nM

$$$$
>  <BINDER>
Isovaleryl-K(GalNH)TH[Dip]PAIK([Ahx-Palmitoyl])[β3hF]-NH2 [Isovaleric Acid-[Lys(GalNH-T-H-[Dpa]-P-A-I-[Lys(Ahx_Palm)]-[bhPhe]-NH2]

>  <FPN IC50>
150 nM

$$$$
>  <BINDER>
Isovaleryl-LTH[Dip]PK([βAla-Palmitoyl])[N_Butyl_Phe] [Isovaleric Acid-L-T-H-[Dpa]-P-[Lys(bAla_Palm)]-N_Butyl_Phe]

>  <FPN IC50>
469 nM

$$$$
>  <BINDER>
Isovaleryl-ETHFPAIK([γGlu-C12 acid])FEPRSKGAK-NH2 [Isovaleric Acid-E-T-H-F-P-A-I-[Lys(IsoGlu_C12_acid)]-F-E-P-R-S-K-G-A-K-NH2]

>  <FPN IC50>
4490 nM

$$$$
